Reported EC50 of Dextramer staining by item:
- TARGET OR TEST SYSTEM: T1, MAGE-A1 peptide on HLA-A*02:01 (human)
- T1 peptide: KVLEYVIKV
- ASSAY DETAILS: MAGE-A1 Dextramer gradient on transduced JKR9; unit inferred; full-length, on cells

BINDER	EC50 of Dextramer staining [pM]
A1A2-M01-614 (TCR, V domains shown) Valpha: GEDVEQSLFLSVREGDSSVINCTYSDMLSTYLYWYKQEPGAGLQLLTYIFIFQAMKQDQRLTVLLNKKDKHLSLRIADTQTGDSAIYFCAGSGGGTDKLIFGTGTRLQVFP Vbeta: GAVVSQHPSWVICKSGTSVKIECRSLDFEATTMFWYRQFPKQSLMLMATTDYGSKATYEQGVEKDKFLINHASLTLSTLTVTSAHPEDSSFYICSAREPGQGPWEQYFGPGTRLTVT	163
A1A2-M01-612 (TCR, V domains shown) Valpha: GEDVEQSLFLSVREGDSSVINCTYVDPYSTYLYWYKQEPGAGLQLLTYIFSFMDMKQDQRLTVLLNKKDKHLSLRIADTQTGDSAIYFCAGSGGGTDKLIFGTGTRLQVFP Vbeta: GAVVSQHPSWVICKSGTSVKIECRSLDFEATTMFWYRQFPKQSLMLMATSNEGSKATYEQGVEKDKFLINHASLTLSTLTVTSAHPEDSSFYICSAREPWDPWYEQYFGPGTRLTVT	47.5
A1A2-M01-625 (TCR, V domains shown) Valpha: GEDVEQSLFLSVREGDSSVINCTYTDSSMTYLYWYKQEPGAGLQLLTYIFAFESMKQDQRLTVLLNKKDKHLSLRIADTQTGDSAIYFCAGSGGGTDKLIFGTGTRLQVFP Vbeta: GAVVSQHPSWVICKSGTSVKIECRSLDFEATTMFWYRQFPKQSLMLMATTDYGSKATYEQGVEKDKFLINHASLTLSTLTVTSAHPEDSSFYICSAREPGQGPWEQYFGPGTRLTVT	85.2
